Entries annotated with measured Kd
# ASSAYED SYSTEM: full-length human α1D-adrenoceptor (Homo sapiens)
# TEST METHOD NOTES: [3H]prazosin whole-cell competition binding, CHO-α1D cells
# CONDITION LABEL: Log KD α1D (apparent), app: top concentration inhibited most but not all specific binding, curve extrapolated
Numeric only. Scale: µM

[[record]]
compound = "CC(C)NCC(O)COc1cccc2[nH]c3ccccc3c12 (stereo not drawn) [Carazolol]"
measurement_units = "µM"
numeric_value = 9.12

[[record]]
compound = "Cn1cc(C(F)(F)F)nc1-c1ccc(OCC(O)CNCCOc2ccc(O)c(C(N)=O)c2)cc1 (stereo not drawn) [CGP20712A]"
measurement_units = "µM"
numeric_value = 11


Please look at the following compound next.
## Input So what does the record say about Kd for CCN1CCCC1CNC(=O)c1cc(S(N)(=O)=O)ccc1OC (stereo not drawn) [Sulpiride] ?
## Output 219

* * *

# ASSAYED SYSTEM: human α1A-adrenoceptor (Homo sapiens, UniProt P35348)
# Construct: CHO cells stably expressing either the full‐length human α1A, α1B, or α1D‐adrenoceptor
# Sequence (P35348 1-466): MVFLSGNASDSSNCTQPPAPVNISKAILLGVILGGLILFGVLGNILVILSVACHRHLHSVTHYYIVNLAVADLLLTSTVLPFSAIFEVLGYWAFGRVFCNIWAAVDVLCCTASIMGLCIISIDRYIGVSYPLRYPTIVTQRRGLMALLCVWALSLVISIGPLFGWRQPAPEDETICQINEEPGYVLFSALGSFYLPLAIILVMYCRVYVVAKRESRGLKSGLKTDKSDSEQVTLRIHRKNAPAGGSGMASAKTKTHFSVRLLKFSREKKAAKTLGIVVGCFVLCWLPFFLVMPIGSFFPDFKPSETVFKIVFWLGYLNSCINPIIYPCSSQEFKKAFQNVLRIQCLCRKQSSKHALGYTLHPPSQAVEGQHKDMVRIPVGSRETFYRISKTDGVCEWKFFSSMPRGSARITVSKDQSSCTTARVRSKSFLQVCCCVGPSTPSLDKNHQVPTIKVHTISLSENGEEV
# TEST METHOD NOTES: [3H]prazosin whole-cell competition binding, CHO-α1A cells
EXPERIMENTAL READOUT: Selectivity ratio α1A vs α1B (fold)
Please reply with the bare figure in fold and do not write the unit itself.

[[record]]
compound = "CNCCC=C1c2ccccc2CCc2ccccc21 [Nortriptyline]"
assayed_system = "human α1A-adrenoceptor (Homo sapiens, UniProt P35348)"
experimental_readout = "Selectivity ratio α1A vs α1B"
measurement_units = "fold"
numeric_value = 47

[[record]]
compound = "CN[C@H]1CC[C@@H](c2ccc(Cl)c(Cl)c2)c2ccccc21 [Sertraline]"
assayed_system = "human α1A-adrenoceptor (Homo sapiens, UniProt P35348)"
experimental_readout = "Selectivity ratio α1A vs α1B"
measurement_units = "fold"
numeric_value = 1.9

[[record]]
compound = "COc1ccccc1N1CCN(CCCNc2c(C)c(=O)n(C)c(=O)n2C)CC1 [5‐methyl‐urapidil]"
assayed_system = "human α1A-adrenoceptor (Homo sapiens, UniProt P35348)"
experimental_readout = "Selectivity ratio α1A vs α1B"
measurement_units = "fold"
numeric_value = 148


## Input What does the record list as Selectivity ratio α1A vs α1B for CN(C)CCCN1c2ccccc2CCc2ccccc21 [Imipramine] ?
## Output 51

## Input Same question, CN1CCc2cccc(Cl)c2CC1 [SKF86466] this time
## Output 13

## Input Item: CN(C)CCC=C1c2ccccc2CCc2ccccc21 [Amitriptyline]
## Output 93

## Input Okay, and CN(C)CCCN1c2ccccc2CCc2ccc(Cl)cc21 [Clomipramine] ?
## Output 60

## Input # iterate: Cc1nc2n(c(=O)c1CCN1CCC(c3noc4cc(F)ccc34)CC1)CCCC2O (stereo not drawn) [Paliperidone]
## Output 10

* * *

# ASSAYED SYSTEM: full-length human α1D-adrenoceptor (Homo sapiens, UniProt P25100)
# TEST METHOD NOTES: [3H]prazosin whole-cell competition binding, CHO-α1D cells
# CONDITION LABEL: Log KD α1D site 1, +1 mmol/L sodium thiosulphate, two-component curve, high-affinity component
EXPERIMENTAL READOUT: pKd
pKd here is simply -log10 of the concentration when that concentration is written in mol/L.

## Input For the molecule shown here, CCOc1ccccc1OCCN[C@H](C)Cc1ccc(OC)c(S(N)(=O)=O)c1 [Tamsulosin] , give the reported pKd.
## Output 9.11

* * *

# ASSAYED SYSTEM: UniProt:P25100
# Sequence (P25100 1-572): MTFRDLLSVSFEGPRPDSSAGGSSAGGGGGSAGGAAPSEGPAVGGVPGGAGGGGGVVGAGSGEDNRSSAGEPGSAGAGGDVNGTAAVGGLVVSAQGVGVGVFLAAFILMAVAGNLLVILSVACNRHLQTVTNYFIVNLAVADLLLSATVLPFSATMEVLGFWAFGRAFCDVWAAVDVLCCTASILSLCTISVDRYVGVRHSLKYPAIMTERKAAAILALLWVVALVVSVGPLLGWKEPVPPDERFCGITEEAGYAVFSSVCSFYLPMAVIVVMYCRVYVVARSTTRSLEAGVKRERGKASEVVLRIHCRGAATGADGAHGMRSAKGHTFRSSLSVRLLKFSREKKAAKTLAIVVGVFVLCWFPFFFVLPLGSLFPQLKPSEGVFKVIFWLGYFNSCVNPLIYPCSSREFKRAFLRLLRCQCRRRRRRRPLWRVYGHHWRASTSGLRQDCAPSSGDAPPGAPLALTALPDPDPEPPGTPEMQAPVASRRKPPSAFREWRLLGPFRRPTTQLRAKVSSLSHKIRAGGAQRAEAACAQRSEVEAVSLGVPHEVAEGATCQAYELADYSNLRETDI
# TEST METHOD NOTES: [3H]prazosin whole-cell competition binding, CHO-α1D cells
# CONDITION LABEL: percentage of inhibition through first component; control
EXPERIMENTAL READOUT: % site 1 α1D (% site 1)
Please respond with the number in % site 1 and leave the unit unwritten.

[[record]]
compound = "OCCN1CCN(CCCN2c3ccccc3Sc3ccc(Cl)cc32)CC1 [Perphenazine]"
numeric_value = 53.3


Now look at this one.
## Input Return reported % site 1 α1D; argument: CN(C)CCCN1c2ccccc2Sc2ccc(Cl)cc21 [Chlorpromazine]
## Output 56.0

* * *

# ASSAYED SYSTEM: full-length human α1D-adrenoceptor (Homo sapiens)
# TEST METHOD NOTES: [3H]prazosin whole-cell competition binding, CHO-α1D cells
# CONDITION LABEL: Log KD α1D, single-component inhibition curve; given as log KD (negative); mean ± SE mean
EXPERIMENTAL READOUT: Kd (µM)
Answer with a number only, understood to be in µM.

Solved entries:
[[record]]
compound = "CNCCC(Oc1ccc(C(F)(F)F)cc1)c1ccccc1 (stereo not shown)"
numeric_value = 12.6

[[record]]
compound = "CN(CCCN1c2ccccc2CCc2ccccc21)CC(=O)c1ccc(Cl)cc1"
numeric_value = 4.27

[[record]]
compound = "CN(C)CCC=C1c2ccccc2CCc2ccccc21"
numeric_value = 0.562

[[record]]
compound = "Fc1ccc([C@@H]2CCNC[C@H]2COc2ccc3c(c2)OCO3)cc1"
numeric_value = 2.34

[[record]]
compound = "OCCN1CCN(CCC=C2c3ccccc3Sc3ccc(C(F)(F)F)cc32)CC1"
numeric_value = 0.11


## Input # Kd lookup, item O=C1CCc2ccc(OCCCCN3CCN(c4cccc(Cl)c4Cl)CC3)cc2N1
## Output 0.708

## Input Input CN(C)CC/C=C1\c2ccccc2CSc2ccccc21 [Dosulepin]
## Output 2.63

## Input Also need CN1CCN(CCCN2c3ccccc3Sc3ccc(C(F)(F)F)cc32)CC1 , thanks.
## Output 0.437

## Input CNCCCN1c2ccccc2CCc2ccccc21 ?
## Output 3.47

## Input How about this compound: CN(C)CCCN1c2ccccc2CCc2ccc(Cl)cc21
## Output 0.708

## Input Repeat for the following compound: COc1cc2nc(N3CCN(C(=O)C4CCCO4)CC3)nc(N)c2cc1OC (stereo not shown)
## Output 0.0195

## Input Same read-out for CC(CN1c2ccccc2Sc2ccccc21)N(C)C (stereo not shown) ?
## Output 1.78

## Input Same question for Cc1ccc(Sc2ccccc2N2CCNCC2)c(C)c1 please.
## Output 3.72

* * *

Entries and their Selectivity ratio α1A vs α1B
# ASSAYED SYSTEM: human α1A-adrenoceptor (Homo sapiens)
# Construct: CHO cells stably expressing either the full‐length human α1A, α1B, or α1D‐adrenoceptor
# Sequence (P35348 1-466): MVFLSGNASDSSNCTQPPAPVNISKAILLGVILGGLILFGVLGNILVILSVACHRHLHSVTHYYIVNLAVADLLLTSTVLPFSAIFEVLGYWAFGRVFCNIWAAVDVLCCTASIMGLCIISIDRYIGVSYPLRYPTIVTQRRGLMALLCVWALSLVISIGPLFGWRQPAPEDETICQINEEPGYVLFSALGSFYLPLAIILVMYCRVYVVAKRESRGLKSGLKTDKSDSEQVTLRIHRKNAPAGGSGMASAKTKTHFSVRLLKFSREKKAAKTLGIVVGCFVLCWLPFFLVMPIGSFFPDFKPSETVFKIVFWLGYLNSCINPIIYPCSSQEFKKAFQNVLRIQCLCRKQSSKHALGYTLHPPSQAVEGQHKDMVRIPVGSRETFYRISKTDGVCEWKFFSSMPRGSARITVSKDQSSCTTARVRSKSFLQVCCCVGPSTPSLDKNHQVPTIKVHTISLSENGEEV
# TEST METHOD NOTES: [3H]prazosin whole-cell competition binding, CHO-α1A cells
# CONDITION LABEL: ratio of KD values; printed under α1A = higher α1A affinity; 1.0 under vs = none

[[record]]
compound = "CC(C)(C)NCC(O)COc1cccc2[nH]c(=O)[nH]c12 (stereo not shown) [CGP12177]"
experimental_readout = "Selectivity ratio α1A vs α1B"
result = ">14 fold"

[[record]]
compound = "COc1ccc(C(CN(C)C)C2(O)CCCCC2)cc1 (stereo not shown) [Venlafaxime]"
experimental_readout = "Selectivity ratio α1A vs α1B"
result = ">4.9 fold"

[[record]]
compound = "CCn1ccnc1CC1COc2ccccc2O1 (stereo not shown) [Imiloxan]"
experimental_readout = "Selectivity ratio α1A vs α1B"
result = ">4.0 fold"


Now let's try a different one.
## Input Param readout= Selectivity ratio α1A vs α1B; system= human α1A-adrenoceptor (Homo sapiens); entry= COc1ccc2cccc(CCNC(C)=O)c2c1 [Agomelatine] ; returns value.
## Output >3.7 fold
